assay_target: Transient receptor potential cation channel subfamily V member 1 (Homo sapiens, UniProt Q8NER1)
Sequence (Q8NER1 whole entry): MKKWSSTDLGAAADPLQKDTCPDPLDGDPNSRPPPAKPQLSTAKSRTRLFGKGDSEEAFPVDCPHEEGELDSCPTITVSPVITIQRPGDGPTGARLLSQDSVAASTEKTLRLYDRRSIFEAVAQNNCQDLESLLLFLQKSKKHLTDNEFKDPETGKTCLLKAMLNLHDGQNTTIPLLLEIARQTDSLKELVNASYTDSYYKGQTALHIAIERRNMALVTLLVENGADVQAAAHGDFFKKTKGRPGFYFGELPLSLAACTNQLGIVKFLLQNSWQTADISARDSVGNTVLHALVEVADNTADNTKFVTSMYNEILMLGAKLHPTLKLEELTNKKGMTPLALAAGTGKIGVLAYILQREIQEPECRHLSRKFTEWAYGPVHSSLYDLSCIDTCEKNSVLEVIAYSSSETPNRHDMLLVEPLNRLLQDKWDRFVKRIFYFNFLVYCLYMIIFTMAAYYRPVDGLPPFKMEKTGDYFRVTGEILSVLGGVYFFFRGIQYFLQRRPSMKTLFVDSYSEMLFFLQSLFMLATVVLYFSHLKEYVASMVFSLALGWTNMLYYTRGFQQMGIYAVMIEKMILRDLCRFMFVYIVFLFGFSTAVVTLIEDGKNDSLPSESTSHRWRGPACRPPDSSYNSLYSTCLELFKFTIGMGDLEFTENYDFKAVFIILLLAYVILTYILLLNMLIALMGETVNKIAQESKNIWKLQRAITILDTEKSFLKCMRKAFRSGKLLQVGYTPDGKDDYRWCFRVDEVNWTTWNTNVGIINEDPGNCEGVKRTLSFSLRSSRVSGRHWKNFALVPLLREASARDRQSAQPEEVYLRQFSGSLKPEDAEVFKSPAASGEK
assay_info: Antagonist activity at human recombinant TRPV1 receptor expressed in human 1321 cells assessed as inhibition of capsaicin-induced in intracellular calcium levels by FLIPR assay
quantity: IC50 (nM)

[in] Reported IC50 for `FC(F)(F)c1ccc(-c2cnc(Nc3cccc4[nH]ncc34)o2)cc1` : what is it?
[out] 101

[in] Now consider `O=C1CCc2cccc(Nc3ncc(-c4ccc(C(F)(F)F)cc4)o3)c2C1` .
[out] 374

[in] Now consider OC1CCc2cccc(Nc3nc(-c4ccc(F)cc4)c(-c4ccc(C(F)(F)F)cc4)o3)c2C1 (stereo not given) .
[out] 1.3

A: Cc1ccccc1-c1cnc(Nc2cccc3c2CC(O)CC3)o1 (stereo not given)
B: OC1CCc2c(cccc2Nc2ncc(-c3ccc(C(F)(F)F)cc3)o2)C1 (stereo not given)
[in] Select the item whose IC50 value is smaller, choosing between A and B . # reply format: chosen label
[out] B
